# Tested on: SNB-19
# PROTOCOL_TEXT: NCI tumour cell line growth inhibition, 48 h
Active and inactive are the calls of the source. No stated cut-off is given here; in the data, active = GI50 up to about 1.1 µM and inactive = higher.
Each entry below carries its reported GI50.

Solved entries:
Clc1ccccc1-c1nc2cc(C34CC5CC(CC(C5)C3)C4)ccc2[nH]1    10 µM (inactive)
COc1ccccc1NCc1cccc2c(=O)c3ccc(Cl)cc3oc12    92.7 µM (inactive)
C=C(CN(CC)CC)C1(c2ccccc2)CC2(CCCC2)C(=O)O1 (stereo unspecified)    > 100 µM (inactive)

INPUT: Quote GI50 reported for COC(=O)C(C(=O)C(=O)Nc1ccc(N)cc1[N+](=O)[O-])c1nc2ccc(Cl)cc2nc1O (stereo unspecified) please.
OUTPUT: > 100 µM (inactive)

INPUT: Please report GI50 for the following molecule: O=C(O)CCCNS(=O)(=O)c1ccc2ccccc2c1
OUTPUT: > 100 µM (inactive)

INPUT: Indicate the recorded GI50 value for this molecule: CCCCCCCCCCCC[N+]12CC[N+](C)(CC1)CC2
OUTPUT: 14 µM (inactive)

---

# Tested on: RPMI-8226
# PROTOCOL_TEXT: NCI tumour cell line growth inhibition, 48 h
The source made the active and inactive calls. No stated cut-off is given here; in the data, active = GI50 up to about 1.1 µM and inactive = higher.
PROPERTY_NAME: GI50

O=c1onc2c3ccccc3ncn12    > 100 µM (inactive)
Nc1ccc(S(=O)(=O)Nc2nc3ccccc3nc2N2CCCCC2)cc1    58.9 µM (inactive)
Cc1cn([C@H]2C[C@@H](N3C(=O)c4ccccc4C3=O)[C@@H](CO[Si](C)(C)C(C)(C)C)O2)c(=O)[nH]c1=O    > 100 µM (inactive)
C=C(CO)CC(O)c1ccccc1 (stereo unspecified)    > 100 µM (inactive)
CCOC(=O)Nn1c(C)nnc1-c1ccccc1    > 100 µM (inactive)

We now examine a further compound.
INPUT: Complete the entry with GI50 for COc1ccc(-n2c(=O)n(C)c(=O)n2-c2ccc(OC)cc2)cc1
OUTPUT: > 100 µM (inactive)

---

# Test system: UO-31
# PROTOCOL_TEXT: NCI tumour cell line growth inhibition, 48 h
Calls of active or inactive are those of the source. No stated cut-off is given here; in the data, active = GI50 up to about 1.1 µM and inactive = higher.
Your reply should match one of these outcome classes. 1 (active), 0 (inactive)

INPUT: Test call, this compound: S=c1[nH]c(=S)c2nnn(-c3ccccc3)c2[nH]1
OUTPUT: 0

INPUT: For this compound, state the assay outcome: COc1ccc(C2C3=C(CCCC3=O)N(c3ccccc3)C3=C2C(=O)CCC3)cc1
OUTPUT: 0

INPUT: Hey, what did the test say about c1ccc2c[n+](CCCCCCCCCC[n+]3ccc4ccccc4c3)ccc2c1 ?
OUTPUT: 0

INPUT: GET /call?item= CC[C@@]1(CCC(=O)NCCc2c[nH]c3ccccc23)CCC(=O)N2CCc3c([nH]c4ccccc34)[C@H]21 returns the recorded outcome of this test.
OUTPUT: 0

INPUT: Kindly provide the recorded test outcome for the following compound: CCN(c1ccc(Br)cc1)c1c(Br)c(=O)nc2ccccn12
OUTPUT: 0

---

GI50 values by entry
# Test system: TK-10
# PROTOCOL_TEXT: NCI tumour cell line growth inhibition, 48 h
The source made the active and inactive calls. Cut-off read from the data, not from the text of the source: active = GI50 up to about 1.1 µM and inactive = higher.

Field: example entries. Status: answers known.
CCCCCCCCCCCCCCCC(=O)OCC(C[As](=O)(O)O)OC(=O)CCCCCCCCCCCCCCC (centres undefined)    > 66.5 µM (inactive)
CC(=O)Oc1ccc2c(c1)c1c(=O)oc(N(C)C)nc1n2Cc1ccccc1    > 100 µM (inactive)
Cc1nc(-n2nc(-c3ccccc3)cc2-c2ccccc2)sc1C(=O)CC(=O)C(=O)Nc1ccc(Cl)c(Cl)c1    > 100 µM (inactive)
C[C@]12CC[C@H]3[C@@H](CCC4=CC(=O)CC[C@@H]43)[C@@H]1CC[C@@H]2OC1(O)C(=O)c2ccccc2C1=O    32.5 µM (inactive)
CCCCCCCCC#CCCCCCCC(F)C(=O)O (centres undefined)    > 100 µM (inactive)

INPUT: Name the recorded GI50 of the item COC(=O)c1sc2c(c1C(=O)OC)/C(=N/C(C)(C)C)S/C2=N\C(C)(C)C in your answer.
OUTPUT: 17.2 µM (inactive)

INPUT: Name the recorded GI50 of the item CCOC(=O)Cc1nc2c(O)ncnc2n1C1OC(COC(C)=O)C(OC(C)=O)C1OC(C)=O (centres undefined) in your answer.
OUTPUT: > 100 µM (inactive)

INPUT: Using the record for COC1(OC)CC(CO)(CNc2nc(N)nc(Cl)c2C=O)C1 , state its measured GI50.
OUTPUT: > 100 µM (inactive)

INPUT: Supply recorded GI50 for CC1=C(C(=S)Nc2ccc(Cl)c(C(=O)OC(C)C)c2)SCCO1 here.
OUTPUT: 22.2 µM (inactive)

---

# System: K562
# PROTOCOL_TEXT: NCI tumour cell line growth inhibition, 48 h
Activity calls are given as the source filed them. Cut-off read from the data, not from the text of the source: active = GI50 up to about 1.1 µM and inactive = higher.
Quick list: GI50 per entry.

Completed entries (count: 2):
CN1C2CC(=O)CC1[C@@H]1OC(c3ccccc3)O[C@H]21 (stereo partly drawn)    > 100 µM (inactive)
CC(O)(CCCCCl)c1nc2ccccc2s1 (stereo not drawn)    89.9 µM (inactive)

Next, consider the following compound.
INPUT: Answer with the recorded GI50 of O=C1CC(O)c2c1csc2Br (stereo not drawn) only.
OUTPUT: 25.6 µM (inactive)

---

# System: MDA-MB-435
# PROTOCOL_TEXT: NCI tumour cell line growth inhibition, 48 h
Calls of active or inactive are those of the source. Cut-off read from the data, not from the text of the source: active = GI50 up to about 1.1 µM and inactive = higher.
Allowed answers: active, inactive

CC(=O)N1c2ccccc2C(C)(C)OC1C(Cl)(Cl)Cl (centres undefined)    inactive

INPUT: Hey, what did the test say about Nc1cc2ncnc(Nc3cccc(Br)c3)c2cn1 ?
OUTPUT: inactive

INPUT: Would you mind telling me which call this test gave COc1ccc([C@H](NC(=O)c2ccccc2)[C@@H](O)C(=O)O[C@H]2C[C@@]3(O)C(OC(=O)c4ccccc4)C4[C@](C)(C(=O)[C@H](OC(C)=O)C(=C2C)C3(C)C)[C@@H](O)C[C@H]2OC[C@@]42OC(C)=O)cc1 (some centres undefined) ?
OUTPUT: active

---

# Test system: NCI-H460
# PROTOCOL_TEXT: NCI tumour cell line growth inhibition, 48 h
Calls of active or inactive are those of the source. Cut-off read from the data, not from the text of the source: active = GI50 up to about 1.1 µM and inactive = higher.
PROPERTY_NAME: GI50

Worked examples, 3 compounds total:
N#Cc1cccc(C2SCc3nc4ccccc4n32)c1 (stereo unspecified)    > 100 µM (inactive)
Clc1ccccc1-c1nc2cc(C34CC5CC(CC(C5)C3)C4)ccc2[nH]1    30.3 µM (inactive)
O=[N+]([O-])c1ccc(C2N3CCCCC3[C@H]3CCCCN23)cc1 (stereo partly specified)    > 100 µM (inactive)

INPUT: Provide measured GI50 value, entry: Cc1c2c(cc3c1C(=O)C(=O)C1=C3OC[C@@H]1C)C(C)(C)CCC2
OUTPUT: 13.7 µM (inactive)

INPUT: Provide only the value of recorded GI50 for Nc1ccc(C(c2ccccc2)(c2ccccc2)c2ccccc2)cc1
OUTPUT: 28.8 µM (inactive)

INPUT: Using known records, supply GI50 for CC(C)(C)N/N=C(\C(=O)Nc1nnc(S)[nH]1)C1C(=O)Nc2ccccc2[S+]1[O-] (stereo unspecified)
OUTPUT: > 100 µM (inactive)

INPUT: Give the reported value of GI50 for this record: COc1ccc2oc(=N)c(C(=O)Nc3ccccc3)cc2c1
OUTPUT: 45.5 µM (inactive)

INPUT: Return GI50 for the following compound: O=C(/C=C/c1ccc(O)c(O)c1)OCCc1ccc2ccccc2c1
OUTPUT: 7.05 µM (inactive)

INPUT: Give a short answer stating reported GI50 for O=C(OCC(OC(=O)c1ccccc1)C1CC(C2(O)CCCCC2)C(=O)O1)c1ccccc1 (stereo unspecified) .
OUTPUT: 9.18 µM (inactive)

INPUT: Query GI50 for CC[C@@H]1NC(C(=O)OC)Cc2c1[nH]c1ccccc21 (stereo partly specified)
OUTPUT: 27.9 µM (inactive)

INPUT: Identify measured GI50 associated with [O-][Cl+3]([O-])([O-])[O-].[O-][Cl+3]([O-])([O-])[O-].c1ccn2c(N3CCOCC3)[n+]3c4ccccc4[n+]4c(N5CCOCC5)n5ccccc5c4c3c2c1
OUTPUT: > 100 µM (inactive)

---

# Test system: MOLT-4
# PROTOCOL_TEXT: NCI tumour cell line growth inhibition, 48 h
Active and inactive are the calls of the source. Rule as the data show it: active = GI50 up to about 1.1 µM and inactive = higher.
PROPERTY_NAME: GI50

Example entries begin here.
Nc1nccc(NCC2(CO)CC(CCc3ccccc3)C2)n1 (stereo not given)    7.98 µM (inactive)
CCc1nc(N)nc(N)c1-c1ccc(N2CCNCC2)c([N+](=O)[O-])c1    5.65 µM (inactive)
O=C1c2ccccc2-c2ccccc2C(=O)C1(Br)Br    2.67 µM (inactive)
CC1=C(/C=C/C(C)=C/C=C/C(C)=C/CO)C(C)(C)CCC1    18 µM (inactive)
CCN(CC)c1ccc2c(c1)Nc1cc(=C(C#N)C#N)c3ccccc3c1=N2    > 100 µM (inactive)

INPUT: Consider the compound Cn1cnc2c(OCC3CCCCC3)nc(N)nc21 tested on MOLT-4; state its GI50.
OUTPUT: > 100 µM (inactive)

INPUT: Write GI50 of COc1ccc(-n2c(=O)n(C)c(=O)n2-c2ccc(OC)cc2)cc1 ; system used: MOLT-4
OUTPUT: > 100 µM (inactive)

INPUT: Please indicate recorded GI50 of CCCCCCCCCCCC[N+]12CC[N+](C)(CC1)CC2 measured with MOLT-4.
OUTPUT: 27.9 µM (inactive)

INPUT: Quote MOLT-4 GI50 for entry NNC(=O)CNC(=O)CSc1nnc(COc2ccc(Cl)cc2)n1-c1ccccc1 .
OUTPUT: > 100 µM (inactive)

INPUT: Provide GI50, recorded with MOLT-4, of C[C@@H]1CC[C@H]2[C@H](C)C(OC3O[C@@H]4O[C@@]5(C)CC[C@H]6[C@H](C)CC[C@@H]([C@@H]3C)[C@@]46O5)O[C@@H]3O[C@@]4(C)CC[C@@H]1[C@]32O4 (stereo not given in full)
OUTPUT: > 100 µM (inactive)

INPUT: Quote MOLT-4 GI50 for entry COC(=O)C(Cc1cc(OC)c(OC)c(OC)c1)(NC(=O)c1ccccc1)P(=O)(OC)OC (stereo not given) .
OUTPUT: > 100 µM (inactive)

INPUT: Provide GI50, system MOLT-4, entry COc1ccc(NC(/C(C(=O)c2ccccc2)=C(\O)C(=O)/C=C(\O)c2ccccc2)c2ccc(OC)cc2)cc1 (stereo not given)
OUTPUT: 42.8 µM (inactive)
